# Test system: CP266
# PROTOCOL SUMMARY: qHTS profiling for inhibitors of Plasmodium falciparum proliferation (AID 504749);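 also: 0% = DMSO vehicle and full inhibition = artemisinin control; nearly all actives have a fitted effect of over 60% in size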
# CONDITION DESCRIPTION: P. falciparum in erythrocytes, SYBR Green DNA, 72 h; series mostly up to 28.7 µM
Inconclusive results are not listed. Calls of active or inactive are those of the source. Calls follow the shape of the dose curve; as a rule, active = well fitted inhibition curve with a large enough effect; inconclusive = small, poorly fitted or top-dose-only effect; inactive = flat fitted curve, though single readings scatter.
ENDPOINT: outcome

INSERT INTO assay_data (molecule, tested_system, result) VALUES
  ('CC1(C)C(/C=C/C=C/C=C/C=C2\N(CCCCS(=O)(=O)O)c3ccc4ccccc4c3C2(C)C)=[N+](CCCCS(=O)(=O)[O-])c2ccc3ccccc3c21', 'CP266', 'inactive'),
  ('NC(=O)CCC1NC(=O)C(Cc2ccccc2)NC(=O)C(Cc2ccc(O)cc2)NC(=O)CCSSCC(C(=O)N2CCCC2C(=O)NC(CCCN=C(N)N)C(=O)NCC(N)=O)NC(=O)C(CC(N)=O)NC1=O (stereo not drawn)', 'CP266', 'inactive'),
  ('CC(=O)OCC1=C(C(=O)O)N2C(=O)C(NC(=O)Cc3ccccc3)C2SC1 (stereo not drawn)', 'CP266', 'inactive');

###

# TESTED SYSTEM: Cytochrome P450 3A4 (Homo sapiens)
# PROTOCOL SUMMARY: qHTS Assay for Inhibitors and Substrates of Cytochrome P450 3A4 (AID 884); also: % is scaled to controls: 0 for no effect and ±100 for the full control effect; nearly all actives have a fitted effect of over 50% in size
# CONDITION DESCRIPTION: recombinant CYP3A4, Luciferin-PPXE luminescence; series mostly up to 57.1 µM
Results filed as inconclusive are left out. Activity calls are given as the source filed them. Calls follow the shape of the dose curve; as a rule, active = well fitted inhibition curve with a large enough effect; inconclusive = small, poorly fitted or top-dose-only effect; inactive = no such curve, though single readings can be large or run the other way.
ENDPOINT: activity change, negative = inhibition

Some entries whose results are on file:
INSERT INTO results (compound, result) VALUES
  ('COC(=O)NC(CC(C)=O)c1cccc(C(F)(F)F)c1 (stereo not given)', '-14.1% [at 11.4 µM] (inactive)'),
  ('CC(=O)c1ccc(OC2C=CC(c3ccc(Cl)cc3)OC2CO)cc1 (stereo not given)', '-21.5% [at 11.4 µM] (inactive)'),
  ('OCC1OC(c2ccccc2)C=CC1Oc1cc(Cl)cc(Cl)c1 (stereo not given)', '5.16% [at 11.4 µM] (inactive)'),
  ('CCCCCCC/C=C/C1=CC2(C)CC1(C)C(CCCCCCC)CC2=O (stereo not given)', '-15% [at 11.4 µM] (inactive)');

Task: Quote activity change, negative = inhibition with test system Cytochrome P450 3A4 (Homo sapiens) for CCN1C(C)=C(C(=O)OC)C(c2ccccc2)N2C(=O)[C@@]3(C(=O)OC)O[C@@]12C1C(=O)N(c2ccccc2)C(=O)C13 (stereo not given in full)
Output: -20.6% [at 11.4 µM] (inactive)

###

# PROTOCOL SUMMARY: qHTS assay for small molecule antagonists of peroxisome proliferator-activated receptor delta signaling (AID 588535);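 also: cells co-treated with a PPAR-delta agonist as stimulator during compound exposure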
# CONDITION DESCRIPTION: HEK293T PPARd-UAS-bla, beta-lactamase FRET ratio, 18 h; 460 nm channel
Inconclusive results are not listed.
ENDPOINT: max response (%)
// units = %; emit number, no label

Some entries whose results are on file:
INSERT INTO assay_data (molecule, endpoint, uom, measured_number) VALUES
  ('CCC/C(=N\OCC)C1=C(O)CC(O)(CC(C)S(=O)(=O)CC)CC1=O (stereo not given)', 'max response', '%', 9.67),
  ('CCCCCCc1ccc(N)cc1', 'max response', '%', 65.6),
  ('COC(=O)CCSCCC(=O)OC', 'max response', '%', 13.2),
  ('CC/C=C/CCCCCCCCCCOC(C)=O', 'max response', '%', 25.9),
  ('CCCCCCCC[Si](OCC)(OCC)OCC', 'max response', '%', 2.69),
  ('CCC(C)OC(=O)N1CCCCC1CCO (stereo not given)', 'max response', '%', 49.3),
  ('Cn1c(=O)[nH]c(=O)n(C2CCC(O)CC2)c1=O (stereo not given)', 'max response', '%', 54.4),
  ('Cc1ccc(N=Nc2c(O)ccc3ccccc23)c(C)c1', 'max response', '%', 9.29);

Task: # return recorded max response for entry COC(=O)c1cccc(C(=O)OC)c1
Output: -2.46

###

# TESTED SYSTEM: Cytochrome P450 3A4 (Homo sapiens) (UniProt P08684)
# Sequence (P08684 whole entry, looked up): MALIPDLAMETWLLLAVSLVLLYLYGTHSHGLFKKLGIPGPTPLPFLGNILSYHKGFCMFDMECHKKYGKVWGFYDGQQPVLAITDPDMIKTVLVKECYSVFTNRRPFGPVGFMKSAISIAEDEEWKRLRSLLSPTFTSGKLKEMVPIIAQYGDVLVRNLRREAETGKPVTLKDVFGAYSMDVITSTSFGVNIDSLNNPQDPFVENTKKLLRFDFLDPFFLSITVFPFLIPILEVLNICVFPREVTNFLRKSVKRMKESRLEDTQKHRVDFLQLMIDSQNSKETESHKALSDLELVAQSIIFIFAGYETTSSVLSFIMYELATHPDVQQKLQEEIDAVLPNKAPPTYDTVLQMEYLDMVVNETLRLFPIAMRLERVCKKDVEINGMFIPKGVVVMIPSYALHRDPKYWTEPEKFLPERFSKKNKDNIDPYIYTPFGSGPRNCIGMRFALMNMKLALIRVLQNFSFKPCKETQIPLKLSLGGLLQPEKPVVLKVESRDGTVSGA
# PROTOCOL SUMMARY: qHTS Assay for Activators of Cytochrome P450 3A4 (AID 885); also: nearly all actives have a fitted effect of over 65% in size
# CONDITION DESCRIPTION: recombinant CYP3A4, Luciferin-PPXE luminescence, 60 min; series mostly up to 57.1 µM
Activity calls are given as the source filed them. The call rests on the fitted dose curve; in most records, active means well fitted activation curve with a large enough effect; inconclusive means small, poorly fitted or top-dose-only effect; inactive means no such curve, though single readings can be large or run the other way.
ENDPOINT: activity change, positive = activation

INSERT INTO measurements (molecule, result) VALUES
  ('FC(F)(F)c1ccc(CN2C[C@@H]3C(c4ccc(C(F)(F)F)cc4)C4(c5cccnc5)CC3(C4)[C@H]2c2ccccc2)cc1 (some centres not stated)', 'inactive'),
  ('COC(=O)C/C=C\[C@@H](C)[C@@H](/C=N\O[C@@H](C)CN1CCCCc2nc(C)c(C)cc21)NS(=O)(=O)c1ccc(C)cc1', '-78.5% [at 11.4 µM] (inactive)'),
  ('COc1ccc(COC(=O)N/N=C2/C[C@@H](O)[C@@H](O)[C@@H]3[C@@H]4C(=O)N(c5cccc(Oc6ccccc6)c5)C(=O)[C@H]4CC[C@@H]23)cc1', '-30.5% [at 11.4 µM] (inactive)'),
  ('COC(=O)c1ccc(C(NC(=O)OCc2ccccc2)/C(=C/[C@@H](C)C(=O)NCC2CC2)c2cccnc2)cc1 (some centres not stated)', 'inactive'),
  ('CCC1=C2CC[C@H]3C(=O)NC(=O)[C@H]3[C@H]2[C@@]2(C)C(=O)N(CC3CC3)C(=O)N2C1=O', 'inactive');

Task: # return recorded activity change, positive = activation for entry C=CC[C@@H]1C=C[C@@H](O/N=C\[C@@H](OC)[C@H](C)/C=C\CC(=O)OC)[C@@H](CO)O1
Output: -64.1% [at 11.4 µM] (inactive)

Task: # return recorded activity change, positive = activation for entry CCc1cc2c(nc1CC)CCN(CC/C(C)=N/O[C@@H](C)CN1CCCc3nc(C)c(C)cc31)C2
Output: -50.2% [at 11.4 µM] (inactive)

###

Below, each entry is listed with its recorded activity, negative = inhibition.
# PROTOCOL SUMMARY: qHTS profiling for inhibitors of Plasmodium falciparum proliferation (AID 504749);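 also: 0% = DMSO vehicle and full inhibition = artemisinin control; nearly all actives have a fitted effect of over 60% in size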
# CONDITION DESCRIPTION: P. falciparum in erythrocytes, SYBR Green DNA, 72 h; at 28.7 µM (top of the series); parasite line A
Results filed as inconclusive are left out. Numbered stars: 1 amine (or outer) side, 2 acyl side, 3 side chain; on linkers, the order of the positions; unused ones are H or OH. Bridge positions count the residues as written; N and C are the ends. Square brackets hold non-standard residues; d marks the D form. Peptide text beside a SMILES is read from it. * marks the point of attachment. ξ: configuration not given here. ΔAla(Z-3-ureido) = NC(=O)N/C=C(\N)C(=O)O; ξDab(CH2SO3H) = NC(CCNCS(=O)(=O)O)C(=O)O; X2 = NC1=NC(O)CC(C(N[*:1])C(=O)[*:2])N1; X1 = NC1=NCCC(C(N[*:1])C(=O)[*:2])N1; Heptanoyl(6-Me) = CC(C)CCCCC(=O)*; ξβ3hOrn = NCCCC(N)CC(=O)*; Dab = NCC[CH](N)C(=O)O; Dap = NC[CH](N)C(=O)O
// units = %; emit number, no label

INSERT INTO measurements (compound, endpoint, uom, measured_number) VALUES
  ('CC(N)C(=O)NCC(=O)NC1CSSCC(C(=O)O)NC(=O)C(CO)NC(=O)C(C(C)O)NC(=O)C(Cc2ccccc2)NC(=O)C(C(C)O)NC(=O)C(CCCCN)NC(=O)C(Cc2c[nH]c3ccccc23)NC(=O)C(Cc2ccccc2)NC(=O)C(Cc2ccccc2)NC(=O)C(CC(N)=O)NC(=O)C(CCCCN)NC1=O (configuration not stated)', 'activity, negative = inhibition', '%', 12),
  ('CCC(C)C1NC(=O)C(Cc2ccc(O)cc2)NC(=O)C(N)CSSCC(C(=O)N2CCCC2C(=O)NC(CC(C)C)C(=O)NCC(N)=O)NC(=O)C(CC(N)=O)NC(=O)C(CCC(N)=O)NC1=O (configuration not stated)', 'activity, negative = inhibition', '%', 0.779),
  ('NC(=O)CCC1NC(=O)C(Cc2ccccc2)NC(=O)C(Cc2ccc(O)cc2)NC(=O)CCSSCC(C(=O)N2CCCC2C(=O)NC(CCCN=C(N)N)C(=O)NCC(N)=O)NC(=O)C(CC(N)=O)NC1=O (configuration not stated)', 'activity, negative = inhibition', '%', 9.46),
  ('NCCCC(N)CC(=O)NCC1NC(=O)C(CO)NC(=O)C(N)CNC(=O)C(C2CCN=C(N)N2)NC(=O)/C(=C/NC(N)=O)NC1=O (stereo not drawn) (H-[Dap]S[Dap](ξβ3hOrn)[ΔAla(Z-3-ureido)][X1]; lactam 1-C; configuration not given here)', 'activity, negative = inhibition', '%', 10.1),
  ('CC(C)CC(NC(=O)C(COC(C)(C)C)NC(=O)C(Cc1ccc(O)cc1)NC(=O)C(CO)NC(=O)C(Cc1c[nH]c2ccccc12)NC(=O)C(Cc1cnc[nH]1)NC(=O)C1CCC(=O)N1)C(=O)NC(CCCN=C(N)N)C(=O)N1CCCC1C(=O)NNC(N)=O (configuration not stated)', 'activity, negative = inhibition', '%', 11.9);

Task: # return recorded activity, negative = inhibition for entry CC(C)C[C@H](NC(=O)[C@@H](Cc1c[nH]c2ccccc12)NC(=O)[C@@H](Cc1ccc(O)cc1)NC(=O)[C@@H](CO)NC(=O)[C@@H](Cc1c[nH]c2ccccc12)NC(=O)C(Cc1cnc[nH]1)NC(=O)C1CCC(=O)N1)C(=O)N[C@@H](CCCN=C(N)N)C(=O)N1CCC[C@@H]1C(=O)NCC(N)=O (some centres not stated)
Output: 17.3

Task: # return recorded activity, negative = inhibition for entry NCCCC(N)CC(=O)NC1CNC(=O)C(C2CC(O)N=C(N)N2)NC(=O)/C(=C/NC(N)=O)NC(=O)C(CO)NC(=O)C(CO)NC1=O (stereo not drawn) (ξβ3hOrn-[Dap]SS[ΔAla(Z-3-ureido)][X2]; lactam 1-C; configuration not given here)
Output: 5.91

Task: # return recorded activity, negative = inhibition for entry CCOC(=O)C(CS)NCCN[C@@H](CS)C(=O)OCC (some centres not stated)
Output: -2.53

Task: # return recorded activity, negative = inhibition for entry CCC(C)C1NC(=O)C(CCNCS(=O)(=O)O)NC(=O)C(NC(=O)C(CCNCS(=O)(=O)O)NC(=O)C(NC(=O)C(CCNCS(=O)(=O)O)NC(=O)CCCCC(C)C)C(C)O)CCNC(=O)C(C(C)O)NC(=O)C(CCNCS(=O)(=O)O)NC(=O)C(CCNCS(=O)(=O)O)NC(=O)C(C(C)CC)NC1=O (configuration not stated) ({Heptanoyl(6-Me)}-[ξDab(CH2SO3H)]T[ξDab(CH2SO3H)][Dab][ξDab(CH2SO3H)]II[ξDab(CH2SO3H)][ξDab(CH2SO3H)]T; lactam 4-C; configuration not given here)
Output: -19.4

Task: # return recorded activity, negative = inhibition for entry O=C(O)c1ccccc1-c1c2cc(Br)c(=O)c(Br)c-2oc2c(Br)c(O)c(Br)cc12
Output: 7.94

Task: # return recorded activity, negative = inhibition for entry CC(C)C(NC(=O)C(CC(=O)O)NC(=O)C(CCCCN)NC(=O)C(N)CCCN=C(N)N)C(=O)NC(Cc1ccc(O)cc1)C(=O)O (configuration not stated) (H-RKDVY-OH; configuration not given here)
Output: 0.811

Task: # return recorded activity, negative = inhibition for entry C=CC1=C(C(=O)O)N2C(=O)[C@@H](NC(=O)C(N=O)c3csc(N)n3)[C@H]2SC1 (some centres not stated)
Output: 6.56
